tested system: PHD1 (EGLN2) (Homo sapiens (Human), UniProt Q96KS0)
Sequence (Q96KS0 whole entry): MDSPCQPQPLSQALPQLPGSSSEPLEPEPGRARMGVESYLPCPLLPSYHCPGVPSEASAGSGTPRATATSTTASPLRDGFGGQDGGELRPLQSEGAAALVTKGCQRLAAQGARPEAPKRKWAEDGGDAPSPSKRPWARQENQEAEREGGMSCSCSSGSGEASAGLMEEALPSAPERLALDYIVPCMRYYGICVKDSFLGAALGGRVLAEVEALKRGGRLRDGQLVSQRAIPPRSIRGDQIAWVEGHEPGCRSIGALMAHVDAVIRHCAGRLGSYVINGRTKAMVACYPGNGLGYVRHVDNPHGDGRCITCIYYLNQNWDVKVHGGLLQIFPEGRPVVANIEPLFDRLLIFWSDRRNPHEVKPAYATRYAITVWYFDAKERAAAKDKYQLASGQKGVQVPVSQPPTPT
assay text: HIF-PH assay (14CO2 capture), PHD1 enzyme inhibition
Format: biochemical
assay conditions: Table 1; ratio of the IC50 of the compound for each enzyme
Please respond with reported PHD2/PHD1 for every item in the list.

Ask: Form field: reported PHD2/PHD1 of CC(C)(CCNC(=O)c1ncc2cc(Oc3ccccc3)ccc2c1O)C(=O)O [Compound 8]
Reply: 10

Ask: Form field: reported PHD2/PHD1 of N#Cc1nc(C(=O)NCC2(C(=O)O)CCS(=O)(=O)CC2)c(O)c2ccc(Oc3ccccc3)cc12 [Compound 29]
Reply: 9.9

Ask: Form field: reported PHD2/PHD1 of Cc1ccccc1Oc1ccc2c(C#N)nc(C(=O)NCC(C)(C)C(=O)O)c(O)c2c1 [Compound 155]
Reply: 8

Ask: Form field: reported PHD2/PHD1 of O=C(O)CCNC(=O)c1ncc2cc(S(=O)(=O)C3CCCCC3)ccc2c1O [Compound 135]
Reply: 8

Ask: Form field: reported PHD2/PHD1 of N#Cc1nc(C(=O)N[C@H]2CCC[C@H]2C(=O)O)c(O)c2ccc(Oc3ccccc3)cc12 (relative stereo) [Compound 33]
Reply: 6

Ask: Form field: reported PHD2/PHD1 of N#Cc1nc(C(=O)NCCC(=O)O)c(O)c2ccc(-c3ccccc3)cc12 [Compound 137]
Reply: 6

====

tested system: PHD2 (EGLN1) (Homo sapiens (Human))
Sequence (Q9GZT9 whole entry): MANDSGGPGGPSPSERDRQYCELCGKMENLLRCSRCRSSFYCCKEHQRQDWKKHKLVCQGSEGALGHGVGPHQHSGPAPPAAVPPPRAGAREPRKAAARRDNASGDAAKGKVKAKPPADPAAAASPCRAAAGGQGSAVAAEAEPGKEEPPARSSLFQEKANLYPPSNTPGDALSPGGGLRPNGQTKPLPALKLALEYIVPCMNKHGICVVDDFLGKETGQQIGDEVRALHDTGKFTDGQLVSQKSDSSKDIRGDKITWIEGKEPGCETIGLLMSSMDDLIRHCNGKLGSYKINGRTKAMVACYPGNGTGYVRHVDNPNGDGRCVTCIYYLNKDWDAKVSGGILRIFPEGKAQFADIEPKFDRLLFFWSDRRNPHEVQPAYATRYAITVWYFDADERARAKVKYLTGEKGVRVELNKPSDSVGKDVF
assay text: HIF-PH assay (14CO2 capture), PHD2 enzyme inhibition
Type: biochemical
assay conditions: Table 1; individual measurement; read-out: IC50 (μM) PHD2
Please respond with reported IC50 for every item in the list.
// return the numeric value with its unit appended

Ask: Form field: reported IC50 of N#Cc1nc(C(=O)NC(CC(=O)O)c2cccnc2)c(O)c2ccc(Oc3ccccc3)cc12 (stereo not shown)
Reply: 39.4 µM

Ask: Form field: reported IC50 of O=C(O)CCCNC(=O)c1ncc2cc(Sc3ccccc3)ccc2c1O
Reply: 14.8 µM

Ask: Form field: reported IC50 of O=C(O)CCCNC(=O)c1ncc2cc(NC(=O)Nc3ccc(F)cc3)ccc2c1O
Reply: 56.4 µM

Ask: Form field: reported IC50 of N#Cc1nc(C(=O)NCC(CC(=O)O)c2ccc(Cl)cc2)c(O)c2ccc(Oc3ccccc3)cc12 (stereo not shown)
Reply: 30.9 µM

Ask: Form field: reported IC50 of O=C(O)CCCNC(=O)c1ncc2cc(NC(=O)NCc3ccccc3)ccc2c1O
Reply: 13.4 µM

Ask: Form field: reported IC50 of N#Cc1nc(C(=O)NCC2(C(=O)O)CCC2)c(O)c2ccc(Oc3cccnc3)cc12
Reply: 7.15 µM

Ask: Form field: reported IC50 of Cc1cccc(C)c1Oc1ccc2c(C#N)nc(C(=O)NCCCC(=O)O)c(O)c2c1
Reply: 21.3 µM

Where do these numbers come from? They come from patent US9409892B2.
